Each recorded value in this set is attributed to patent US20230295157A1.

The reader will find reported log10 of IC50 values listed item by item below.
- test-system: Factor XIa (Homo sapiens (Human), UniProt P03951)
- Sequence (P03951 388-625): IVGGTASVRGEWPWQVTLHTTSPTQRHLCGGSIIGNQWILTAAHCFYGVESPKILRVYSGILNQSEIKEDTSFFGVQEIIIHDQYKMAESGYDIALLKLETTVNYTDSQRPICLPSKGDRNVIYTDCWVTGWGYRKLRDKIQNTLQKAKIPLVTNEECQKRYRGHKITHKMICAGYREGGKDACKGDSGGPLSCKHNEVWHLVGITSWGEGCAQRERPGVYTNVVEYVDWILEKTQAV
- Sequence (P03951 19-387 partner): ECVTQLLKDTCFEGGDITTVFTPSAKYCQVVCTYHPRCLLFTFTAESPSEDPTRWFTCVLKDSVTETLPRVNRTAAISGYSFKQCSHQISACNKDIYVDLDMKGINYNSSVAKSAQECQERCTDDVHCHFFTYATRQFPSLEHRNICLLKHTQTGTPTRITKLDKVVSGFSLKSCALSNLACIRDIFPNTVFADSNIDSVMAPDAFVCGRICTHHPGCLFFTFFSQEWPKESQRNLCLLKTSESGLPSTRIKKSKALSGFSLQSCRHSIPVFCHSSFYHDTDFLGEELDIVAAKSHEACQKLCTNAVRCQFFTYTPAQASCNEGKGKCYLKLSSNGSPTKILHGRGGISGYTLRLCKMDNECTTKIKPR
- method-description: Factor XIa inhibition assay (FLINT) utilizing a fluorophore-quencher pair peptide substrate
- Type: biochemical
- reported-conditions: 30 min preincubation, kinetic reads over 30 min, 5Fam-[…]-K5Tamra substrate 15 μM; read-out: FXIa Kin Inh IC50
- Excerpt: Biological Example 1: Factor XIa Inhibition Assay Utilizing a Fluorophore-Quencher Pair Peptide Substrate A fluorescence intensity (FLINT) based assay was used to monitor inhibition of Factor XIa. The peptide substrate, 5Fam-[…]-K5Tamra (purchased from New England Peptide) was chosen based on the FXI sequence. […] The peptide substrate was designed with a fluorophore-quencher pair, where the fluorescence is quenched until FXIa cleaves the 8-mer peptide after the Arg residue. […]
Values are log10 of IC50 in nM.

Worked examples follow.
• O=C1C=C(c2c(-n3cnnn3)ccc(Cl)c2F)C[C@H]2CC[C@@H](c3ncc(-c4ccnc([C@@H](O)C(F)(F)F)c4)[nH]3)N12 (relative stereo) = 0.98
• Cn1c(=O)[nH]c2ccc(-c3cnc([C@@H]4CC[C@@H]5CC(c6c(-n7cnnn7)ccc(Cl)c6F)=CC(=O)N54)[nH]3)cc21 (relative stereo) = 0.15
• O=C(Nc1cnccc1-c1c[nH]c([C@@H]2CC[C@H]3CC(c4c(-n5cnnn5)ccc(Cl)c4F)=CC(=O)N32)n1)C1CC1 (relative stereo) = -0.70
• [2H]c1nc([C@H]2CC[C@]3([2H])CC(c4c(-n5cnnn5)ccc(Cl)c4F)=CC(=O)N23)[nH]c1-c1c(F)nc(N)c([2H])c1[2H] (single isomer, unassigned) = -0.05

Input: Form: Entry = COC(=O)Nc1ccccc1-c1cnc([C@@H]2CC[C@@H]3CC(c4c(-n5cnnn5)ccc(Cl)c4F)=CC(=O)N32)[nH]1 (relative stereo) | System = Factor XIa (Homo sapiens (Human), UniProt P03951) | log10 of IC50 = ____
Output: 0.49

Input: Form: Entry = N#CC1CN(c2nccc(-c3cnc([C@@H]4CC[C@@H]5CC(c6c(-n7cnnn7)ccc(Cl)c6F)=CC(=O)N54)[nH]3)c2F)C1 (single isomer, unassigned) | System = Factor XIa (Homo sapiens (Human), UniProt P03951) | log10 of IC50 = ____
Output: 0.28

Input: Form: Entry = Nc1nccc(-c2cnc([C@@H]3CC[C@@H]4CC(c5cc(Cl)ccc5-n5cnnn5)=CC(=O)N43)[nH]2)c1F (single isomer, unassigned) | System = Factor XIa (Homo sapiens (Human), UniProt P03951) | log10 of IC50 = ____
Output: -0.30

Input: Form: Entry = O=C1C=C(c2c(-n3cnnn3)ccc(Cl)c2F)C[C@@H]2CC[C@@H](c3ncc(-c4ccnc([C@H](O)C(F)(F)F)c4)[nH]3)N12 (relative stereo) | System = Factor XIa (Homo sapiens (Human), UniProt P03951) | log10 of IC50 = ____
Output: 1.26

###

- test-system: Factor XIa (Homo sapiens (Human), UniProt P03951)
- method-description: Factor XIa inhibition assay (FLINT) utilizing a fluorophore-quencher pair peptide substrate
- Assay type: biochemical
- reported-conditions: 30 min preincubation, kinetic reads over 30 min, 5Fam-KLTRAETV-K5Tamra substrate 15 μM; read-out: FXIa Kin Inh IC50
measurement-kind: log10 IC50 (log10 of the value in nM)
Values are log10 of IC50 in nM.

- NC(=O)c1cc(-c2cnc([C@@H]3CC[C@@H]4CC(c5c(-n6cc(C(F)(F)F)nn6)ccc(Cl)c5F)=CC(=O)N43)[nH]2)ccn1: 1.46
- NC(=O)c1ccc(-c2c[nH]c([C@@H]3CC[C@@H]4CC(c5c(-n6cc(C(F)(F)F)nn6)ccc(Cl)c5F)=CC(=O)N43)n2)s1: 0.70
- [2H]c1cc(N)nc(F)c1-c1cnc([C@@H]2CC[C@@H]3CC(c4c(-n5cnnn5)ccc(Cl)c4F)=CC(=O)N32)[nH]1: -0.22
- O=C1CCCN1c1nccc(-c2cnc([C@@H]3CC[C@@H]4CC(c5c(-n6cnnn6)ccc(Cl)c5F)=CC(=O)N43)[nH]2)c1F: 1.04
- NC(=O)c1cccc(-c2cnc([C@@H]3CC[C@@H]4CC(c5c(-n6cnnn6)ccc(Cl)c5F)=CC(=O)N43)[nH]2)c1F: 0.75

With those in mind, consider the next molecule.
Input: What value of log10 IC50 has been reported for the following molecule? O=C(O)c1ccc(-c2c[nH]c(C3CCC4CC(c5cc(Cl)ccc5-n5cc(C(F)(F)F)nn5)=CC(=O)N43)n2)s1 (stereo not drawn)
Output: -0.15

###

The reader will find reported pIC50 values listed item by item below.
- test-system: human plasma kallikrein (Homo sapiens (Human), UniProt P03952)
- Sequence (P03952 391-638): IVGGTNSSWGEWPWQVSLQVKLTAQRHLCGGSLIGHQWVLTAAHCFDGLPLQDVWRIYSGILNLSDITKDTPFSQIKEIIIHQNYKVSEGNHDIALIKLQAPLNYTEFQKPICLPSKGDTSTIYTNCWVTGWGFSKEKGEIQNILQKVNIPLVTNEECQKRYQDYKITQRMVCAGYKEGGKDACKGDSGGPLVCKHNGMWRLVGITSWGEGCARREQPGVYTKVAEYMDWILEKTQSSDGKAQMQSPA
- Sequence (P03952 20-390 partner): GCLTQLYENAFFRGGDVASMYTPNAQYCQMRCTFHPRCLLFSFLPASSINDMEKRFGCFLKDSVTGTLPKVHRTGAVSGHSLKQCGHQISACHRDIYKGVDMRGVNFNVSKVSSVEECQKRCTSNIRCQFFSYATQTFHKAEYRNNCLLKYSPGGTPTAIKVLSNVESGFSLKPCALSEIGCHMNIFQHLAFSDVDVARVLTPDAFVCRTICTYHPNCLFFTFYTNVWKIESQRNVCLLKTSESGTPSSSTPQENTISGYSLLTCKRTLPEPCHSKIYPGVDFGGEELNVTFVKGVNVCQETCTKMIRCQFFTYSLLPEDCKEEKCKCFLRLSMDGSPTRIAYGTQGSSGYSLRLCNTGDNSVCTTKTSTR
- method-description: Kallikrein inhibition assay (FLINT) utilizing a quenched AMC peptide substrate
- Type: biochemical
- reported-conditions: 30 min preincubation, kinetic reads over 30 min, Z-Gly-Pro-Arg-AMC substrate 50 μM; read-out: Kallikrein Kin Inh IC50
- Experimental: Biological Example 2: Kallikrein Inhibition Assay Utilizing a Quenched AMC Peptide Substrate A fluorescence intensity (FLINT) based assay was used to monitor inhibition of human plasma kallikrein. […] Test compound(s) were run in an 11-point, 3-fold serial dilution with a final top compound concentration of 1 μM. […] The assay was run with kinetic (KIN) reads at 5 min intervals over 30 minutes. […]
Field pIC50 (float): negative decimal logarithm of the concentration in molar.

Worked examples follow.
* COC(=O)Nc1nccc(-c2[nH]c([C@@H]3CC[C@@H]4CC(c5c(-n6cnnn6)ccc(Cl)c5F)=CC(=O)N43)nc2F)c1F | 8.19
* CCOC(=O)Nc1ccncc1-c1c[nH]c([C@@H]2CC[C@H]3CC(c4c(-n5cnnn5)ccc(Cl)c4F)=CC(=O)N32)n1 | 6.54
* [2H]c1cc(Cl)cc(C2=CC(=O)N3[C@H](CC[C@@H]3c3ncc(-c4ccc(N)nc4F)[nH]3)C2)c1-n1cnnn1 (single isomer, unassigned) | 7.77
* O=C(O)c1nccc(-c2cnc([C@@H]3CC[C@@H]4CC(c5c(-n6cc(C(F)(F)F)nn6)ccc(Cl)c5F)=CC(=O)N43)[nH]2)c1F | 7.31
* CC1(O)CCc2c(-c3cnc(C4CCC5CC(c6c(-n7cnnn7)ccc(Cl)c6F)=CC(=O)N54)[nH]3)ccnc21 (stereo not drawn) | 7.62
* O=C1C=C(c2c(-n3cnnn3)ccc(Cl)c2F)C[C@H]2CC[C@@H](c3nc(-c4ccc5[nH]cnc5c4)c[nH]3)N12 | 8.34
* O=C1C=C(c2c(-n3cnnn3)ccc(Cl)c2F)C[C@H]2CC[C@H](c3ncc(-c4ccnc(OC[C@@H]5COCCO5)c4F)[nH]3)N12 (relative stereo) | 7.72
* COC(=O)Nc1ccc(-c2cnc([C@@H]3CCC4CC(c5c(OCC(F)(F)F)ccc(Cl)c5F)=CC(=O)N43)[nH]2)cc1 (stereo partly drawn) | 7.02

Input: What value of pIC50 has been reported for the following compound? O=C1Cc2cc(-c3cnc([C@@H]4CC[C@H]5CC(c6c(-n7cnnn7)ccc(Cl)c6F)=CC(=O)N54)[nH]3)ccc2N1
Output: 8.23

Input: What value of pIC50 has been reported for the following compound? Nc1ccc(-c2cnc([C@@H]3CC[C@@H]4CC(c5cc(Cl)ccc5-n5cnnn5)=CC(=O)N43)[nH]2)c(F)n1 [Example 123]
Output: 8.07

Input: What value of pIC50 has been reported for the following compound? O=C1C=C(c2cc(Cl)ccc2-n2cc(C(F)(F)F)nn2)C[C@H]2CC[C@@H](c3ncc(-c4ccc5[nH]c(=O)cnc5c4F)[nH]3)N12 (relative stereo)
Output: 7.92

Input: What value of pIC50 has been reported for the following compound? O=C1C=C(c2c(-n3cnnn3)ccc(Cl)c2F)C[C@H]2CC[C@@H](c3ncc(-c4ccnc(COP(=O)(O)O)c4F)[nH]3)N12
Output: 7.35

###

- test-system: Factor XIa (Homo sapiens (Human), UniProt P03951)
- method-description: Factor XIa inhibition assay (FLINT) utilizing a fluorophore-quencher pair peptide substrate
- Format: biochemical
- reported-conditions: 30 min preincubation, kinetic reads over 30 min, 5Fam-KLTRAETV-K5Tamra substrate 15 μM; read-out: FXIa Kin Inh IC50
Rule: measured IC50 below 0.7 nM gets t; anything equal to or greater than 0.7 nM gets f.

- C[C@H](Oc1nccc(-c2cnc([C@@H]3CC[C@@H]4CC(c5c(-n6cnnn6)ccc(Cl)c5F)=CC(=O)N43)[nH]2)c1F)c1ncco1 (single isomer, unassigned) [Example 142]: f
- O=C1CCc2cc(-c3cnc([C@@H]4CCC5CC(c6c(-n7cnnn7)ccc(Cl)c6F)=CC(=O)N54)[nH]3)ccc2N1 (stereo partly drawn) [Example 311]: t
- O=C1C=C(c2c(-n3cnnn3)ccc(Cl)c2F)C[C@@H]2CC[C@@H](c3ncc(-c4ccc5[nH]c(=O)ccc5c4)[nH]3)N12 [Example 270]: t
- COC(=O)Nc1ccc(-c2cnc([C@@H]3CC[C@H]4CC(c5c(-n6cnnn6)ccc(Cl)c5F)=CC(=O)N43)[nH]2)cc1 [Example 340]: t

// next entry
Input: Criterion: IC50 strictly below 0.7 nM. Is it met by CS(=O)(=O)Nc1cc(-c2cnc(C3CCC4CC(c5c(-n6cnnn6)ccc(Cl)c5F)=CC(=O)N43)[nH]2)ccn1 (stereo not drawn) [Example 7] ?
Output: f
